meta.source: patent US20260258036A1

Catalogue of molecules with associated inhibition at 2 µM
target_desc: recombinant CYP11B2 (Homo sapiens, UniProt P19099)
Sequence (P19099 25-503): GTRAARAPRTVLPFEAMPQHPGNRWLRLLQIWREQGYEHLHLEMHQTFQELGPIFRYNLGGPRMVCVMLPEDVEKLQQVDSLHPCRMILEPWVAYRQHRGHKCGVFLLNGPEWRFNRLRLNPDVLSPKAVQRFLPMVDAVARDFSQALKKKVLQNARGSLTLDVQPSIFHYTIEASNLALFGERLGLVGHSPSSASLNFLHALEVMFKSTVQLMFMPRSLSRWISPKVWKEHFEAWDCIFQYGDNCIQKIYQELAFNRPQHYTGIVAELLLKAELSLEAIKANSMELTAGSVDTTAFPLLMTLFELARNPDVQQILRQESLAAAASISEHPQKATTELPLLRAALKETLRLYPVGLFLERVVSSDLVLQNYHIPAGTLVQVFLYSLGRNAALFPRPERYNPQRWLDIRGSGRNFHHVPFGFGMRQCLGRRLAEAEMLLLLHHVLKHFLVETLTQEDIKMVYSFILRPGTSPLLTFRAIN
assay_overview: Inhibition of CYP11B2 activity in a reconstructed enzyme system (HPLC with UV detector)
Assay type: biochemical
measurement_parameters: compounds 1_xx; test compound final concentration ≤2 μM; corticosterone substrate; 30 minutes at 37° C.; read-out: Level of CYP11B2 activity inhibition

Completed entries (count: 5):
molecule	inhibition at 2 µM
CN1CCC(Nc2c(F)cc(S(=O)(=O)n3ccc4c(-c5ccccn5)cncc43)cc2F)CC1 [Compound 1_21]	50 to 100%
COc1c(C)cc(S(=O)(=O)n2ccc3c(-c4ncc(C)cn4)cncc32)cc1C [Compound 1_03]	50 to 100%
O=S(=O)(c1cc(F)c(NC2CC2)c(F)c1)n1ccc2c(-c3ccccn3)cncc21 [Compound 1_13]	50 to 100%
CN1CCN(c2c(F)cc(S(=O)(=O)n3ccc4c(-c5ccc(C6CC6)cn5)cncc43)cc2F)CC1 [Compound 1_31]	50 to 100%
Cc1ccc(-c2cncc3c2ccn3S(=O)(=O)c2cc(F)c(N(C)C)c(F)c2)nc1 [Compound 1_33]	50 to 100%

Given the molecule CNc1cnc(-c2cncc3c2ccn3S(=O)(=O)c2cc(F)c(N3CCN(C)CC3)c(F)c2)cn1 [Compound 1_30] , what is its reported inhibition at 2 µM?
1 to 100%

// lookup inhibition at 2 µM for CN(C)c1c(F)cc(S(=O)(=O)n2ccc3c(-c4ccccn4)cncc32)cc1F [Compound 1_09]
50 to 100%

Field request: inhibition at 2 µM | item: CC1CN(c2c(F)cc(S(=O)(=O)n3ccc4c(-c5ccccn5)cncc43)cc2F)C1 [Compound 1_19]
50 to 100%

Can you share its inhibition at 2 µM? I mean this molecule: CC(C)Oc1c(F)cc(S(=O)(=O)n2ccc3c(-c4ccccn4)cncc32)cc1F [Compound 1_06]
50 to 100%

Recorded inhibition at 2 µM of CN1CCN(c2c(F)cc(S(=O)(=O)n3ccc4c(-c5ccc(C#N)nc5)cncc43)cc2F)CC1 [Compound 1_28] , please.
50 to 100%

I am curious: what inhibition at 2 µM value has been reported for CN1CC2CN(c3c(F)cc(S(=O)(=O)n4ccc5c(-c6ccccn6)cncc54)cc3F)CC2C1 (stereo not shown) [Compound 1_24] ?
20 to 100%

Name the reported inhibition at 2 µM value associated with the molecule O=S(=O)(c1cc(F)c(N2CCC3(CCNC3)C2)c(F)c1)n1ccc2c(-c3ccccn3)cncc21 (stereo not shown) [Compound 1_26]
50 to 100%

Would you kindly share the measured inhibition at 2 µM for O=S(=O)(c1cc(F)c(N2CCOCC2)c(F)c1)n1ccc2c(-c3ccccn3)cncc21 [Compound 1_10] ?
50 to 100%

Look up inhibition at 2 µM for this molecule: CN1CCN(c2c(F)cc(S(=O)(=O)n3ccc4c(-c5nc(C#N)co5)cncc43)cc2F)CC1 [Compound 1_27]
50 to 100%

Fill in the blank: the reported inhibition at 2 µM of COc1c(C)cc(S(=O)(=O)n2ccc3c(-c4ccc(S(C)(=O)=O)cn4)cncc32)cc1C [Compound 1_05] is ____.
20 to 100%

inhibition at 2 µM lookup needed for CN1CCN(c2c(F)cc(S(=O)(=O)n3ccc4c(-c5ncc(F)cn5)cncc43)cc2F)CC1 [Compound 1_29] , thanks.
50 to 100%
